- Assayed system: Vitamin D3 receptor (Homo sapiens)
- Protocol details: qHTS assay to identify small molecule antagonists of the vitamin D receptor (VDR) signaling pathway (AID 743223)
- Condition context: VDR-UAS-bla HEK293T, beta-lactamase FRET ratio, 16 h; series mostly up to 61 µM
Results filed as inconclusive are left out. Active and inactive are the calls of the source. Calls follow the shape of the dose curve; as a rule, active = well fitted inhibition curve with a large enough effect in the signal ratio in the repeat runs (not every such curve was filed as active); inconclusive = weak or mixed curves, or effect the other way; inactive = no such curve, though single readings can be large or run the other way; the % refers to the signal ratio.
Pick from T = active, F = inactive when you respond.

Enquiry: Called result for CCCCCCCCCCn1cc[n+](CCCCCCCCCC)c1C
Return: T

Enquiry: Next compound: COc1cc(/C=C/C(=O)O[C@H]2CC[C@]34C[C@]35CC[C@]3(C)[C@@H]([C@H](C)CCC=C(C)C)CC[C@@]3(C)[C@@H]5CC[C@H]4C2(C)C)ccc1O
Return: F

Enquiry: Now consider O=C(Nc1ccc(Oc2ccc(Cl)cc2)c(Cl)c1)c1cc(I)cc(I)c1O .
Return: F

Enquiry: Note, next up: C/C=C(\C)C(=O)OCc1ccccc1
Return: F

Enquiry: Now consider Nc1ccccc1O .
Return: F

Enquiry: Then this compound: C/C(=C(/OCCOc1ccc(Cl)cc1)c1ccc(Cl)cc1Cl)n1ccnc1
Return: F

Enquiry: Please give the result for CN(C/C=C/C#CC(C)(C)C)Cc1cccc2ccccc12 too.
Return: F

Enquiry: And the next one, c1ccc(CSCc2ccccc2)cc1 ?
Return: F

Enquiry: Please answer likewise for CNC(=O)c1ccccc1
Return: F

Enquiry: Next record, please: CCC1OCC(COc2ccc(Oc3ccccc3)cc2)O1 (stereo unspecified)
Return: F

Enquiry: Here is the next compound: Oc1ccc(Cl)cc1Sc1cc(Cl)ccc1O
Return: F
